Cited source for all entries: patent US20240116985A1

Recorded NanoBRET Abs IC50 values for a group of binders are listed next.
Target: T1, B-cat-Halo (beta-catenin HaloTag construct expressed in HEK293 cells) (UniProt P35222 1-781)
T1 sequence (looked up): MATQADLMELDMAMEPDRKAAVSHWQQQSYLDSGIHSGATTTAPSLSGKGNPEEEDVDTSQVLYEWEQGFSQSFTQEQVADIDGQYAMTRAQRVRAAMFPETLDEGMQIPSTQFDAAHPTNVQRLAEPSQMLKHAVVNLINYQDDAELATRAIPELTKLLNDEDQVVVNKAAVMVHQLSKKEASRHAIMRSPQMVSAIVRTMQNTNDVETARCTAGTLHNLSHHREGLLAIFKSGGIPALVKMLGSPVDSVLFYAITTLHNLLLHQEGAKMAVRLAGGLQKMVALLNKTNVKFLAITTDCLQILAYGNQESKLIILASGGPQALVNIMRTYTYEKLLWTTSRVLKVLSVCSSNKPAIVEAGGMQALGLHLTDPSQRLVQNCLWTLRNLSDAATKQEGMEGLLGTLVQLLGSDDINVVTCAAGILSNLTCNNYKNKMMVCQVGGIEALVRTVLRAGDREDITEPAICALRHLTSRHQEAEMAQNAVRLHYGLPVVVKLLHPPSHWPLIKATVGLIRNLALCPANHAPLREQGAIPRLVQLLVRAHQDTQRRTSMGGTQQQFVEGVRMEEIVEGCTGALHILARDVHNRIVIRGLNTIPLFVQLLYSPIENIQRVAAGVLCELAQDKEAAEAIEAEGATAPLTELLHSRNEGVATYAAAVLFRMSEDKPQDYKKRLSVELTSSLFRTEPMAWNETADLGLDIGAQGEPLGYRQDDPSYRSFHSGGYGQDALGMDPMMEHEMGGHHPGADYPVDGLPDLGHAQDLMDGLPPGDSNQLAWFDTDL
Test: cell-based or functional assay
Starred links: 1 amine or outer side, 2 acyl side, 3 side chain; linkers in the order of their positions; H or OH if unused. Positions of bridges follow the written chain, without caps; N, C: chain ends. Non-standard residues stand in square brackets, D forms with d. Primed or numbered codes have the meaning given here. PyrS2″ = (S)-3-amino-1-((pent-4-en-1-yloxy)carbonyl)pyrrolidine-3-carboxylic acid (stapling residue), C=CCCCOC(=O)N1CC[C@@](N[*:1])(C(=O)[*:2])C1; B5(4) = 2,2-bis(4-pentenyl)glycine = 2-amino-2-(pent-4-en-1-yl)hept-6-enoic acid (stitching residue), C=CCCCC(CCCC=C)(N[*:1])C(=O)[*:2]; Me2Asn = listed as N4-methyl-L-asparagine, CNC(=O)C[C@H](N[*:1])C(=O)[*:2]; Phe(3-COOH) = N[C@@H](Cc1cccc(C(=O)O)c1)C(=O)O; Bta = N[C@@H](Cc1csc2ccccc12)C(=O)O; αAllylPro = C=CC[C@@]1(C(=O)O)CCCN1; tBuAla = CC(C)(C)C[C@H](N)C(=O)O; 3Thi = N[C@@H](Cc1ccsc1)C(=O)O
Readout: NanoBRET Abs IC50 (µM)

Binder | Readout | Val
Ac-[αAllylPro]D[tBuAla][B5(4)]D[Phe(3-COOH)][Me2Asn]AFL[PyrS2″][3Thi][Bta][tBuAla]-NH2 (staple 1-4, 4-11) [I-2196] | NanoBRET Abs IC50 | 39.3
Ac-[αAllylPro]D[tBuAla][B5(4)]D[Phe(3-COOH)]SAFL[PyrS2″][3Thi][Bta][tBuAla]-NH2 (staple 1-4, 4-11) [I-2195] | NanoBRET Abs IC50 | 21
